Reference for the values: patent US10227331B2

# study.target: UniProtKB P52699
# Sequence (P52699 whole entry, looked up, species assumed): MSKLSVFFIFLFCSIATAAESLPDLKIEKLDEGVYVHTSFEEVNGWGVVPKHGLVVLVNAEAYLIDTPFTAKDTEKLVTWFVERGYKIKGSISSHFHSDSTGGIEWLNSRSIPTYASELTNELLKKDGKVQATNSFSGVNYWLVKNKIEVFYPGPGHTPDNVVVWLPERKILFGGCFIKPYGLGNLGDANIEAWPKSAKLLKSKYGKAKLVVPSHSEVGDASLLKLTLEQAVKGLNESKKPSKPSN
# protocol.notes: biochemical
# Type: biochemical
# stated.conditions: CCF2-FA substrate, 2 hours at 25° C; read-out: IMP-1 IC50
endpoint.label: IC50 (nM)
Number only, in nM; omit the unit.

[
  {
    "compound": "C[C@@H](CN)S(=O)(=O)c1ccc(-c2cccc3sc(N)nc23)c(-c2nn[nH]n2)c1S(N)(=O)=O",
    "study.target": "UniProtKB P52699",
    "test.result": 0.323
  },
  {
    "compound": "NC[C@H](O)CS(=O)(=O)c1ccc(-c2cccc3[nH]c(N)nc23)c(-c2nn[nH]n2)c1S(N)(=O)=O",
    "study.target": "UniProtKB P52699",
    "test.result": 0.777
  },
  {
    "compound": "NCCS(=O)(=O)c1ccc(C2CCNc3ccccc32)c(-c2nn[nH]n2)c1S(N)(=O)=O (stereo not drawn)",
    "study.target": "UniProtKB P52699",
    "test.result": 6.06
  },
  {
    "compound": "CSc1ccc(-c2ccc(C3CCNCC3)cc2)c(-c2nnn[nH]2)c1S(N)(=O)=O",
    "study.target": "UniProtKB P52699",
    "test.result": 4.37
  },
  {
    "compound": "Nc1nc2ccc(-c3ccc(S(=O)(=O)C4CNC4)c(S(N)(=O)=O)c3-c3nn[nH]n3)cc2o1",
    "study.target": "UniProtKB P52699",
    "test.result": 0.313
  },
  {
    "compound": "CC(=O)N1CCC(S(=O)(=O)c2ccc(-c3cccc4nc(N)[nH]c34)c(-c3nn[nH]n3)c2S(N)(=O)=O)CC1",
    "study.target": "UniProtKB P52699",
    "test.result": 1.98
  }
]

Req: For the compound shown here, NS(=O)(=O)c1c(S(=O)(=O)C2CNC2)ccc(C2=CCS(=O)(=O)CC2)c1-c1nn[nH]n1 , give the reported IC50.
Resp: 3.55

Req: Please give the result for N#Cc1ccc(-c2ccc(S(=O)(=O)CCN)c(S(N)(=O)=O)c2-c2nnn[nH]2)c2[nH]c(N)nc12 too.
Resp: 1.22

---

# study.target: VIM-1 (Pseudomonas aeruginosa (strain ATCC 15692 / DSM 22644 / CIP 104116 / JCM 14847 / LMG 12228 / 1C / PRS 101 / PAO1))
# protocol.notes: biochemical
# stated.conditions: CCF2-FA substrate, 2 hours at 25° C
The following molecules are listed with their measured IC50 values.
Only the number, expressed in nM, is required.

Answered examples (5):
[
  {
    "molecule": "CN(C)CCS(=O)(=O)c1ccc(-c2cccc3sc(N)nc23)c(-c2nn[nH]n2)c1S(N)(=O)=O [Example 326]",
    "test.result": 0.167
  },
  {
    "molecule": "NCCS(=O)(=O)c1ccc(-c2ccc(-c3nn[nH]n3)cc2)c(-c2nnn[nH]2)c1S(N)(=O)=O.O=C(O)C(F)(F)F [Example 151, 2,2,2-trifluoroacetate]",
    "test.result": 0.544
  },
  {
    "molecule": "NS(=O)(=O)c1c(S(=O)(=O)C2CN(C(=O)NC3CC3)C2)ccc(-c2ccc(NS(=O)(=O)C3CC3)cc2)c1-c1nn[nH]n1 [Example 245]",
    "test.result": 0.218
  },
  {
    "molecule": "NS(=O)(=O)c1c(S(=O)(=O)C2CNC2)ccc(-c2ccc3cnccc3c2)c1-c1nnn[nH]1.O=C(O)C(F)(F)F [Example 116, 2,2,2-trifluoroacetate]",
    "test.result": 0.177
  },
  {
    "molecule": "NCCS(=O)(=O)c1ccc(-c2ccnc3ccccc23)c(-c2nnn[nH]2)c1S(N)(=O)=O.O=C(O)C(F)(F)F [Example 138, 2,2,2-trifluoroacetate]",
    "test.result": 0.41
  }
]

Req: Value lookup for IC50; key = NCCS(=O)(=O)c1ccc(-c2cccc3[nH]c([C@H](N)CN)nc23)c(-c2nn[nH]n2)c1S(N)(=O)=O [Example 327]
Resp: 0.455

Req: Now the molecule NCCS(=O)(=O)c1ccc(-c2cccc3[nH]c(C(=O)O)nc23)c(-c2nn[nH]n2)c1S(N)(=O)=O [Example 91]
Resp: 0.239

Req: Another molecule to check: N=C(N)c1nc2c(-c3ccc(S(=O)(=O)C4CNC4)c(S(N)(=O)=O)c3-c3nnn[nH]3)cccc2s1 [Example 62]
Resp: 0.396

Req: Consider next the molecule NS(=O)(=O)c1c(S(=O)(=O)C2CNC2)ccc(-c2cccn3cc(C(=O)O)nc23)c1-c1nnn[nH]1 [Example 61] in the same way.
Resp: 0.677

Req: Would you mind doing NS(=O)(=O)c1c(S(=O)(=O)C2CNC2)ccc(-c2cccc3[nH]c(=O)[nH]c23)c1-c1nnn[nH]1 [Example 299] as well?
Resp: 0.302

Req: Would you mind doing Nc1nc2cc(-c3ccc([S+]([O-])C4CNC4)c(S(N)(=O)=O)c3-c3nn[nH]n3)ccc2[nH]1 (stereo not shown) [Example 11] as well?
Resp: 1.86

Req: Another molecule: NCCS(=O)(=O)c1ccc(-c2cccc3sc(N)nc23)c(-c2nn[nH]n2)c1S(N)(=O)=O [Example 313]
Resp: 0.232

Req: Now the same for NS(=O)(=O)c1c(S(=O)(=O)[C@H]2CCNC2)ccc(-c2cccc3cn[nH]c23)c1-c1nn[nH]n1 [Example 186]
Resp: 0.228

---

Items are presented alongside their recorded Efflux ratio.
# Test system: P. aeruginosa expressing IMP-1, efflux+ (MB9798)
# Format: cell-based, Pseudomonas aeruginosa
# stated.conditions: ratio MITC95 PA_9798/MITC95 PA_9799
Note: the reply should be a number with no unit written.

[
  {
    "smiles.data": "Cc1n[nH]c2cc(F)c(-c3ccc(S(=O)(=O)CCN)c(S(N)(=O)=O)c3-c3nnn[nH]3)cc12.O=C(O)C(F)(F)F",
    "endpoint.label": "Efflux ratio",
    "test.result": 63.98
  },
  {
    "smiles.data": "NC[C@@H](O)CS(=O)(=O)c1ccc(-c2cc(I)cc3[nH]c(N)nc23)c(-c2nn[nH]n2)c1S(N)(=O)=O",
    "endpoint.label": "Efflux ratio",
    "test.result": 0.50
  },
  {
    "smiles.data": "Cl.Cl.NCCCS(=O)(=O)c1ccc(-c2cccc3[nH]c(N)nc23)c(-c2nn[nH]n2)c1S(N)(=O)=O",
    "endpoint.label": "Efflux ratio",
    "test.result": 1.00
  }
]

Req: # lookup: Efflux ratio of NCCS(=O)(=O)c1ccc(-c2cccc3[nH]c([C@H](N)CNC(=O)C(F)(F)F)nc23)c(-c2nn[nH]n2)c1S(N)(=O)=O
Resp: 2.00

Req: What do you have for Nc1cccc(-c2ccc(S(=O)(=O)C3CNC3)c(S(N)(=O)=O)c2-c2nn[nH]n2)n1 ?
Resp: 2.00

Req: Try this molecule next: NS(=O)(=O)c1c(S(=O)(=O)C2CNC2)ccc(-c2cnc3ccoc3c2)c1-c1nnn[nH]1.O=C(O)C(F)(F)F
Resp: 8.00

Req: NCCS(=O)(=O)c1ccc(-c2ccc3nncn3c2)c(-c2nnn[nH]2)c1S(N)(=O)=O.O=C(O)C(F)(F)F ?
Resp: 63.98

Req: Cool, now Nc1nc2c(-c3ccc(S(=O)(=O)C4CNC4)c(S(N)(=O)=O)c3-c3nn[nH]n3)ccc(F)c2[nH]1
Resp: 2.00

---

# study.target: VIM-1 (Pseudomonas aeruginosa (strain ATCC 15692 / DSM 22644 / CIP 104116 / JCM 14847 / LMG 12228 / 1C / PRS 101 / PAO1), UniProt A0A0F7KYQ8)
# protocol.notes: biochemical
# stated.conditions: CCF2-FA substrate, 2 hours at 25° C
pIC50: −log10 of the molar value.
The label depends only on pIC50: Satisfied if it is at least 9, Not satisfied if it is smaller.

[
  {
    "compound": "NCCS(=O)(=O)c1ccc(-c2ccc3scnc3c2)c(-c2nnn[nH]2)c1S(N)(=O)=O.O=C(O)C(F)(F)F [Example 174, 2,2,2-trifluoroacetate]",
    "class.assignment": "Satisfied"
  }
]

Req: Tell me whether pIC50 is at least 9 here: NCCS(=O)(=O)c1ccc(-c2ccnc3[nH]ccc23)c(-c2nnn[nH]2)c1S(N)(=O)=O.O=C(O)C(F)(F)F [Example 142, 2,2,2-trifluoroacetate]
Resp: Satisfied

Req: Similarly, Nc1nc2cccc(-c3ccc(S(=O)(=O)C4CNC4)c(S(N)(=O)=O)c3-c3nn[nH]n3)n2n1 ?
Resp: Satisfied

Req: Next record, please: NCc1nc2c(-c3ccc(S(=O)(=O)C[C@H](O)CN)c(S(N)(=O)=O)c3-c3nn[nH]n3)cccc2[nH]1
Resp: Satisfied

Req: Can you handle NS(=O)(=O)c1c(S(=O)(=O)C2CNC2)ccc(C2CCOCC2)c1-c1nn[nH]n1 next?
Resp: Not satisfied
